Target of assay: HLA-B*46:01
Experiment: IEDB peptide-MHC binding, purified MHC/competitive/fluorescence; filed as Kd, often an IC50 or EC50 that approximates it; bounds were set here for any values at or beyond the usual limits of such assays
Condition label: source organism: Vibrio cholerae 2740-80
Property measured: pKd
Give bare numbers, as −log10 of the molar value.

Sample "IAFCNWAFV" — what was its pKd?
5.36

----------
Target of assay: HLA-A*68:02
Experiment: IEDB peptide-MHC binding, purified MHC/competitive/fluorescence; filed as Kd, often an IC50 or EC50 that approximates it; bounds were set here for any values at or beyond the usual limits of such assays
Condition label: source organism: Escherichia coli E110019
pKd: −log10 of the molar value.
Property measured: pKd

Sample "RAFWGQVQK" — what was its pKd?
≤ 4.70

----------
Target of assay: HLA-B*15:17
Experiment: IEDB peptide-MHC binding, purified MHC/competitive/fluorescence; filed as Kd, often an IC50 or EC50 that approximates it; bounds were set here for any values at or beyond the usual limits of such assays
Condition label: source organism: Salmonella enterica subsp. enterica serovar Typhimurium str. LT2
pKd: −log10 of the molar value.
Property measured: pKd

Sample "ILNSDDEQA" — what was its pKd?
≤ 4.70

----------
Target of assay: HLA-A*02:01
Experiment: IEDB peptide-MHC binding, purified MHC/competitive/fluorescence; filed as Kd, often an IC50 or EC50 that approximates it; bounds were set here for any values at or beyond the usual limits of such assays
Condition label: source organism: Brucella suis 1330
Property measured: pKd
Answers are plain numbers, as −log10 of the molar value.

Sample "RQNAPFEPI" — what was its pKd?
7.08

----------
Target of assay: HLA-A*02:19
Experiment: IEDB peptide-MHC binding, purified MHC/competitive/fluorescence; filed as Kd, often an IC50 or EC50 that approximates it; bounds were set here for any values at or beyond the usual limits of such assays
Condition label: source organism: Salmonella enterica subsp. enterica serovar Typhimurium str. LT2
Property measured: Kd (µM)
Answers are plain numbers, in µM.

Sample "ILNSDDEQA" — what was its Kd?
1.63

----------
Target of assay: HLA-B*46:01
Experiment: IEDB peptide-MHC binding, purified MHC/competitive/fluorescence; filed as Kd, often an IC50 or EC50 that approximates it; bounds were set here for any values at or beyond the usual limits of such assays
Condition label: source organism: Bacillus cereus G9241
Property measured: pKd
One number for each entry, as −log10 of the molar value.

Sample "ISRDIMDAY" — what was its pKd?
7.38

----------
Target of assay: HLA-B*51:01
Experiment: IEDB peptide-MHC binding, purified MHC/direct/fluorescence; filed as Kd, often an IC50 or EC50 that approximates it; bounds were set here for any values at or beyond the usual limits of such assays
Condition label: source organism: Francisella tularensis subsp. tularensis FSC033
Property measured: Kd

// lookup Kd | system=HLA-B*51:01 | key= "ETLDVFGPI"
≥ 20 µM

----------
Target of assay: HLA-A*11:01
Experiment: IEDB peptide-MHC binding, purified MHC/competitive/fluorescence; bounds were set here for any values at or beyond the usual limits of such assays
Condition label: source organism: Vaccinia virus
Property measured: pIC50
One number for each entry, as −log10 of the molar value.

Sample "INNQLLLQK" — what was its pIC50?
5.61

----------
Target of assay: HLA-B*07:02
Experiment: IEDB peptide-MHC binding, purified MHC/competitive/radioactivity; filed as Kd, often an IC50 or EC50 that approximates it; bounds were set here for any values at or beyond the usual limits of such assays
Condition label: source organism: SARS coronavirus Tor2
Please go through the items and note down their Kd.
Give bare numbers, in nM.

Worked cases, Kd given:
[[record]]
sequence_entry = "TPLVQPVGAL"
property_measured = "Kd"
units_text = "nM"
data_value = 86.9

[[record]]
sequence_entry = "HPLADNKFAL"
property_measured = "Kd"
units_text = "nM"
data_value = 97.1


From here, focus on the item given below.
Sample "LPFTLGIMAI" — what was its Kd?
743
